Target: β-glucuronidase (Bos taurus, UniProt A3KMY8)
Sequence (A3KMY8 1-652): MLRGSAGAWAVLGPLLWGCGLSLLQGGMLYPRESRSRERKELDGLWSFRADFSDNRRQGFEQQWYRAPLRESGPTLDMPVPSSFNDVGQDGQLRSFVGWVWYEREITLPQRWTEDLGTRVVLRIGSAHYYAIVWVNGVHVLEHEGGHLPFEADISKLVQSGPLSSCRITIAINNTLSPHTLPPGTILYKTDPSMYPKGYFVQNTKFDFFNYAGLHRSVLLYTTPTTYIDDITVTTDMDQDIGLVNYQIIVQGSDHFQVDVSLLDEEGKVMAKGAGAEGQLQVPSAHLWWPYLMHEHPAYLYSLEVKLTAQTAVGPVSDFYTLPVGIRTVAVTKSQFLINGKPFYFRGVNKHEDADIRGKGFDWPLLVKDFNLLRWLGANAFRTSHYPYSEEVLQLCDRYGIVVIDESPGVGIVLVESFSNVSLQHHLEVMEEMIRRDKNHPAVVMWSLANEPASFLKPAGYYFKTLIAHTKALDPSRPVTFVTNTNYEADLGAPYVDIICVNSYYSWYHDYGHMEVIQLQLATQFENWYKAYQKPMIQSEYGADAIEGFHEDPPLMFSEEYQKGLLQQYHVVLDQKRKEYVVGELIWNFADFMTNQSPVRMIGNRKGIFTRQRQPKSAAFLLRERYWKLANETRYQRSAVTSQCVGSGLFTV
Observed Property: IC50 (µM)
One number for each entry, in µM.

Ask | Which IC50 reading was recorded for the compound N=C(N)NCCCC(NCC1(O)OCC(O)C(O)C1O)C(=O)O (stereo not shown) ?
Reply | 101

###

I'd be grateful if you could share measured IC50 for these entries.
Molecular target: N-acetyl-β-D-glucosaminidase
Experiment: Glycosidase assay, N-acetyl-β-D-glucosaminidase (bovine kidney)
Settings: bovine hexosaminidase; read-out: IC50 against the bovine hexosaminidase
Protocol: All enzymes and para-nitrophenyl substrates were purchased from Sigma, with the exception of beta-mannosidase which came from Megazyme. […] The reactions were stopped by addition of 70 μl 0.4M glycine (pH 10.4) during the exponential phase of the reaction, which had been determined at the beginning using uninhibited assays in which water replaced inhibitor. Final absorbances were read at 405 nm using a Versamax microplate reader (Molecular Devices). […]
One number for each entry, in µM.

INSERT INTO results (molecule, value_reported) VALUES
  ('N=C(N)NCCCC(NCC1(O)OCC(O)C(O)C1O)C(=O)O [N2-β-D-Fructopyranos-1-yl-Arginine]', 7.7);

The record that follows has no IC50 shown yet.
Ask | Which IC50 reading was recorded for the molecule O=C(O)CCCNCC1(O)OCC(O)C(O)C1O (centres unmarked) ?
Reply | 200
